# study system: hCB2 receptor (Homo sapiens)
# procedure text: Agonist-stimulated [35S]GTPγS binding, hCB2 membranes
pEC50: −log10 of the molar value.
Output Satisfied for pEC50 not less than 8; output Not satisfied otherwise.

{"columns": ["compound", "group label"],
 "data": [
  ["CCc1ccc(C(=O)c2cn(CCCCCF)c3ccccc23)c2ccccc12", "Not satisfied"]
]}

Task item: State whether the measured pEC50 reaches 8, counting equality as reaching it, for Cc1ccc(C(=O)c2cn(CCCCCF)c3ccccc23)c2ccccc12
Reply: Satisfied

Task item: Now try CCCCCn1cc(C(=O)c2ccccc2I)c2ccccc21 .
Reply: Not satisfied

Task item: Now try CN1CCCCC1Cn1cc(C(=O)c2ccccc2I)c2ccccc21 (stereo not drawn) .
Reply: Not satisfied

Task item: Now try CCCCCn1cc(C(=O)c2ccc(CC)c3ccccc23)c2ccccc21 .
Reply: Not satisfied

Task item: Now try N#CCCCCn1cc(C(=O)c2cccc3ccccc23)c2ccccc21 .
Reply: Not satisfied

---

# study system: hCB2 receptor (Homo sapiens, UniProt P34972)
# Sequence (P34972 whole entry): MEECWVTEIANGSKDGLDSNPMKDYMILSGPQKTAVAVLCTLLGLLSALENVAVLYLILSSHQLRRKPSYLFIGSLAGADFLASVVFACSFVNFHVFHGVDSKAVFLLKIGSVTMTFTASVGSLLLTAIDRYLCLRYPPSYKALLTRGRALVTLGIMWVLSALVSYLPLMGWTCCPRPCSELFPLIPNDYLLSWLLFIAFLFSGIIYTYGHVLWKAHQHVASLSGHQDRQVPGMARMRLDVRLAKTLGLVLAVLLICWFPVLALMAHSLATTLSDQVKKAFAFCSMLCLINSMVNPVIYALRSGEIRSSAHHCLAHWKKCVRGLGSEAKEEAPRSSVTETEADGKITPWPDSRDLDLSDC
# procedure text: Agonist-stimulated [35S]GTPγS binding, hCB2 membranes
# condition parameters: read-out: [35S]GTPγS Turnover CB2 EC50; hCB2 membranes; value (SEM)
value type: pEC50
# reply with the number alone; pEC50 is -log10 of concentration in mol/L

Task item: Requested read-out: pEC50. Entry: CCCCCn1cc(C(=O)Cc2ccccc2C)c2ccccc21
Reply: 5.82

---

# study system: UniProt:P34972
# procedure text: [3H]CP55,940 displacement binding at hCB2 membranes
value type: Ki (nM)
Quick note: give the figure in nM, leave out the unit.

Illustrative cases are given below, each with its answer.
{"columns": ["molecule", "study system", "Ki, nM"],
 "data": [
  ["CCCCCn1cc(C(=O)c2ccccc2I)c2ccccc21", "UniProt:P34972", 2.1],
  ["Cc1ccc(C(=O)c2cn(CCCCCF)c3ccccc23)c2ccccc12", "UniProt:P34972", 0.59],
  ["CCc1ccc(C(=O)c2cn(CCCCCF)c3ccccc23)c2ccccc12", "UniProt:P34972", 0.38],
  ["N#CCCCCn1cc(C(=O)c2cccc3ccccc23)c2ccccc21", "UniProt:P34972", 11.2],
  ["CN1CCCCC1Cn1cc(C(=O)c2ccccc2I)c2ccccc21 (stereo not shown)", "UniProt:P34972", 0.48]
]}

Task item: Requested read-out: Ki. Entry: CN1CCCC[C@@H]1Cn1cc(C(=O)c2cccc3ccccc23)c2ccccc21
Reply: 0.26

Task item: Now try CCCCCn1cc(C(=O)c2ccc(CC)c3ccccc23)c2ccccc21 .
Reply: 0.94

---

# study system: human CB1 (hCB1) (Homo sapiens, UniProt P21554)
# Sequence (P21554 whole entry): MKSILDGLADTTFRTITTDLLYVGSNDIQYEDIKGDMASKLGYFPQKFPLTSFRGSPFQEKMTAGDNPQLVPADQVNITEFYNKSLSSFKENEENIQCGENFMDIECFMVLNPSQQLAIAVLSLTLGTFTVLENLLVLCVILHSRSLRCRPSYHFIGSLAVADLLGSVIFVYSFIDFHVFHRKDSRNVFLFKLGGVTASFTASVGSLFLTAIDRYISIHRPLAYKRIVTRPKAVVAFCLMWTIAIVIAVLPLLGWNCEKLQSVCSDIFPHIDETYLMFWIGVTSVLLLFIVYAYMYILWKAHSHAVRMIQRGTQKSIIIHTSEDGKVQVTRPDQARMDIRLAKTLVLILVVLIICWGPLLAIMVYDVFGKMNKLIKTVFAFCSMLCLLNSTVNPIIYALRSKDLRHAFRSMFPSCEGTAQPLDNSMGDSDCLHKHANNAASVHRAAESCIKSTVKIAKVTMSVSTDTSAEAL
# procedure text: [3H]CP55,940 displacement binding at hCB1 membranes
Criterion: Ki strictly less than 10 nM. Met: Criterion met. Not met: Criterion not met.

{"columns": ["compound", "group label"],
 "data": [
  ["CN1CCCCC1Cn1cc(C(=O)c2ccccc2I)c2ccccc21 (centres unmarked)", "Criterion met"],
  ["CCc1ccc(C(=O)c2cn(CCCCCF)c3ccccc23)c2ccccc12", "Criterion met"],
  ["Cc1ccc(C(=O)c2cn(CCCCCF)c3ccccc23)c2ccccc12", "Criterion met"],
  ["CCCCCn1cc(C(=O)c2ccccc2I)c2ccccc21", "Criterion not met"]
]}

Read the next record carefully.
Task item: I wonder whether N#CCCCCn1cc(C(=O)c2cccc3ccccc23)c2ccccc21 has Ki below 10 nM. Can you tell?
Reply: Criterion not met
